All values here come from the supplement of paper PMC12338614.

B1: library; numbered along this chain (parent)
chain: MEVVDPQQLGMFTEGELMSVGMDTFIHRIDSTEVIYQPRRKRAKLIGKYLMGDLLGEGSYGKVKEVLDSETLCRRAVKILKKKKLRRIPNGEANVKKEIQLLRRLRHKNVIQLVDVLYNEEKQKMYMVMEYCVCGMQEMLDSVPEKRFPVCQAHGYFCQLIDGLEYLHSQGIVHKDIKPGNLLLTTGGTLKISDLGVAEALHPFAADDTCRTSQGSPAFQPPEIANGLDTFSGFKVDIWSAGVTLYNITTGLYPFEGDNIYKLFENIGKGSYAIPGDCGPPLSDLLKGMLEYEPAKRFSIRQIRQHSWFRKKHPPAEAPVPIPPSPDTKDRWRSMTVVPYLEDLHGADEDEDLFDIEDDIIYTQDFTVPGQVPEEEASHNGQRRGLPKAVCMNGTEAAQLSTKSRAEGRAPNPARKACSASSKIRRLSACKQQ

# Variants of: B1
# assayNotes: STK11 functional score (HeLa growth suppression), rescaled enrichment; synonymous median = 1, nonsense median = 0 (normalised score)
# conditionSummary: with HeLa; variant type: missense
Label 1.0 when STK11 functional score is at or above 1; otherwise label 0.0.

Exam item: decide whether the reported STK11 functional score for E256V is at least 1. 0.0

Reported STK11 functional score reaches at least 1 for D208V ? 1.0

Check if STK11 functional score >= 1 (inclusive). Item: G370P 1.0

Please tell me: is the variant K311Y at or over 1 in terms of STK11 functional score? 1.0

Dear colleague, could you confirm whether D176E has STK11 functional score at or above 1? 0.0

Check this variant for STK11 functional score at or above 1: D208T 1.0

Is STK11 functional score at least 1? Consider T395R 1.0

Could you tell me if the measured STK11 functional score of R333L reaches 1 or more? 1.0

Does the variant G257A have recorded STK11 functional score that is 1 or more? 1.0

Does STK11 functional score meet or surpass 1 for S19V ? 0.0

Does the reported STK11 functional score for Y362A fall at or above the 1 mark? 1.0

Does the variant C391F have recorded STK11 functional score that is 1 or more? 0.0

Is STK11 functional score for S421L at or above 1? 1.0

State whether the measured STK11 functional score reaches 1, counting equality as reaching it, for S307L 1.0

Determine whether measured STK11 functional score meets or exceeds 1 for R103K 1.0

Could you verify whether the entry R297P shows STK11 functional score of no less than 1? 0.0

Quick check: does A318P have STK11 functional score greater than or equal to 1? 1.0

Test whether the variant G268R records STK11 functional score of 1 or higher. 1.0

Is the recorded value of STK11 functional score equal to or greater than 1 for this variant? S428L 0.0

# bool: STK11 functional score of T244R >= 1 0.0

Please indicate if the recorded STK11 functional score for C210T meets or exceeds 1. 1.0

Hi team, for F366L , is the recorded STK11 functional score at or above 1? 1.0
